Tested on: S. lactis
Format: cell-based
measurement-conditions: S. lactis (Gram-pos.); after three days; peptone-glucose agar; pH ~ 6.9-7.0
experimental-endpoint: Minimal concentration causing complete inhibition of visible growth (MIC) (µg/mL)
// return numeric value only (unit: µg/mL, not printed)

The cases that follow already have their Minimal concentration causing complete inhibition of visible growth (MIC) on record.
[[record]]
compound = "CCC[CH2][Sn]([CH2]CCC)([CH2]CCC)[CH2]CCN(C)C.Cl [Bu3 Sn(CH2)3 NMe2 . HCl]"
value_unit = "µg/mL"
recorded_value = 10

[[record]]
compound = "CC[CH2][Sn]([CH2]CC)([CH2]CC)[CH2]CCNCCCN(C)C.Cl.Cl"
value_unit = "µg/mL"
recorded_value = 10

[[record]]
compound = "CCC[CH2][Sn]([CH2]CCC)([CH2]CCC)[CH2]CCO"
value_unit = "µg/mL"
recorded_value = 300

[[record]]
compound = "CCC[CH2][Sn]([CH2]CCC)([CH2]CCC)[CH2]CC(=O)OC"
value_unit = "µg/mL"
recorded_value = 30


Data request: Read off the recorded Minimal concentration causing complete inhibition of visible growth (MIC) for CC[CH2][Sn]([CH2]CC)([CH2]CC)[CH2]CCNCCCN(C)C
Data returned: 10

Data request: Read off the recorded Minimal concentration causing complete inhibition of visible growth (MIC) for C[N+](C)(C)CC[CH2][Sn]([c]1ccccc1)([c]1ccccc1)[c]1ccccc1.[I-]
Data returned: 10

Data request: Read off the recorded Minimal concentration causing complete inhibition of visible growth (MIC) for CCC[CH2][Sn]([CH2]CCC)([CH2]CCC)[CH2]CCCN
Data returned: 3

---

Test system: E. coli
Type: cell-based
measurement-conditions: E. coli (Gram-neg.); after three days; peptone-glucose agar; pH ~ 6.9-7.0
# Minimal concentration causing complete inhibition of visible growth (MIC) values compiled below
// return numeric value only (unit: µg/mL, not printed)

The cases that follow already have their Minimal concentration causing complete inhibition of visible growth (MIC) on record.
[[record]]
molecule = "CCC[CH2][Sn]([CH3])([CH2]CCC)[CH2]CCNCCCN(C)C"
value_unit = "µg/mL"
recorded_value = 10

[[record]]
molecule = "CC[CH2][Sn]([CH2]CC)([CH2]CC)[CH2]CCNCCCN(C)C.Cl.Cl"
value_unit = "µg/mL"
recorded_value = 10

[[record]]
molecule = "CCC[CH2][Sn]([CH3])([CH2]CCC)[CH2]CCNCCCN(C)C.Cl.Cl"
value_unit = "µg/mL"
recorded_value = 3

[[record]]
molecule = "C[N+](C)(C)CC[CH2][Sn]([c]1ccccc1)([c]1ccccc1)[c]1ccccc1.[I-]"
value_unit = "µg/mL"
recorded_value = 1000

[[record]]
molecule = "CCC[CH2][Sn]([CH2]CCC)([CH2]CCC)[CH2]CC(=O)OC"
value_unit = "µg/mL"
recorded_value = 100

[[record]]
molecule = "CCC[CH2][Sn]([CH2]CCC)([CH2]CCN(C)C)[CH2]CCN(C)C [Bu2 Sn[(CH2)3 NMe2]2]"
value_unit = "µg/mL"
recorded_value = 100

[[record]]
molecule = "CCC[CH2][Sn]([CH2]CCC)([CH2]CCC)[CH2]CC[N+](C)(C)C.[I-]"
value_unit = "µg/mL"
recorded_value = 30

[[record]]
molecule = "CC[CH2][Sn]([CH2]CC)([CH2]CC)[CH2]CCNCCCN(C)C"
value_unit = "µg/mL"
recorded_value = 10


Data request: Read off the recorded Minimal concentration causing complete inhibition of visible growth (MIC) for CCC[CH2][Sn]([CH2]CCC)([CH2]CCC)[CH2]CCCN
Data returned: 300

Data request: Read off the recorded Minimal concentration causing complete inhibition of visible growth (MIC) for CCC[CH2][Sn]([CH2]CCC)([CH2]CCC)[CH2]CCN(C)C.Cl [Bu3 Sn(CH2)3 NMe2 . HCl]
Data returned: 300

---

# Minimal concentration causing complete inhibition of visible growth (MIC) values compiled below
System: S. lactis
Assay type: cell-based
measurement-conditions: S. lactis (Gram-pos.); after three days; peptone-glucose agar; pH ~ 6.9-7.0
// return numeric value only (unit: µg/mL, not printed)

[[record]]
compound = "CCC[CH2][Sn]([CH3])([CH2]CCC)[CH2]CCNCCCN(C)C.Cl.Cl"
value_unit = "µg/mL"
recorded_value = 3


Now for the compound whose Minimal concentration causing complete inhibition of visible growth (MIC) we want.
Data request: Read off the recorded Minimal concentration causing complete inhibition of visible growth (MIC) for CCC[CH2][Sn]([CH3])([CH2]CCC)[CH2]CCNCCCN(C)C
Data returned: 10

---

# Minimal concentration causing complete inhibition of visible growth (MIC) values compiled below
System: Cladosporium cucumerinum
Type: cell-based
measurement-conditions: after three days, glucose-agar, pH~6.9-7.0
// return numeric value only (unit: µg/mL, not printed)

Data request: Read off the recorded Minimal concentration causing complete inhibition of visible growth (MIC) for CCC[CH2][Sn]([CH2]CCC)([CH2]CCC)[CH2]CC(=O)OC
Data returned: 1

Data request: Read off the recorded Minimal concentration causing complete inhibition of visible growth (MIC) for CCC[CH2][Sn]([CH2]CCC)([CH2]CCN(C)C)[CH2]CCN(C)C [Bu2 Sn[(CH2)3 NMe2]2]
Data returned: 500

---

System: P. fluorescens
Assay type: cell-based
measurement-conditions: P. fluorescens (Gram-neg.); after three days; peptone-glucose agar; pH ~ 6.9-7.0
From the text: Antibacterial activity of organotin compounds. Minimal concentration causing complete inhibition of visible growth (MIC; after three days). Test medium: peptone-glucose agar; pH ~ 6.9-7.0.
# Minimal concentration causing complete inhibition of visible growth (MIC) values compiled below
// return numeric value only (unit: µg/mL, not printed)

The cases that follow already have their Minimal concentration causing complete inhibition of visible growth (MIC) on record.
[[record]]
compound = "CCC[CH2][Sn]([CH3])([CH2]CCC)[CH2]CCNCCCN(C)C"
target_under_test = "P. fluorescens"
recorded_value = 10

[[record]]
compound = "CCC[CH2][Sn]([CH2]CCC)([CH2]CCC)[CH2]CCN(C)C.Cl [Bu3 Sn(CH2)3 NMe2 . HCl]"
target_under_test = "P. fluorescens"
recorded_value = 300

[[record]]
compound = "CC[CH2][Sn]([CH2]CC)([CH2]CC)[CH2]CCNCCCN(C)C"
target_under_test = "P. fluorescens"
recorded_value = 10

[[record]]
compound = "CCC[CH2][Sn]([CH2]CCC)([CH2]CCC)[CH2]CCOC(C)=O"
target_under_test = "P. fluorescens"
recorded_value = 300


Data request: Read off the recorded Minimal concentration causing complete inhibition of visible growth (MIC) for CCC[CH2][Sn]([CH3])([CH2]CCC)[CH2]CCNCCCN(C)C.Cl.Cl
Data returned: 3

Data request: Read off the recorded Minimal concentration causing complete inhibition of visible growth (MIC) for CCC[CH2][Sn]([CH2]CCC)([CH2]CCC)[CH2]CC(N)=O
Data returned: 300

Data request: Read off the recorded Minimal concentration causing complete inhibition of visible growth (MIC) for CCC[CH2][Sn]([CH2]CCC)([CH2]CCC)[CH2]CCCN
Data returned: 300

Data request: Read off the recorded Minimal concentration causing complete inhibition of visible growth (MIC) for CC[CH2][Sn]([CH2]CC)([CH2]CC)[CH2]CCNCCCN(C)C.Cl.Cl
Data returned: 10

Data request: Read off the recorded Minimal concentration causing complete inhibition of visible growth (MIC) for CCC[CH2][Sn]([CH2]CCC)([CH2]CCC)[O]C(C)=O [Bu3 SnOAc, reference compound]
Data returned: 100

Data request: Read off the recorded Minimal concentration causing complete inhibition of visible growth (MIC) for C[N+](C)(C)CC[CH2][Sn]([c]1ccccc1)([c]1ccccc1)[c]1ccccc1.[I-]
Data returned: 1000

Data request: Read off the recorded Minimal concentration causing complete inhibition of visible growth (MIC) for CCC[CH2][Sn]([CH2]CCC)([CH2]CCN(C)C)[CH2]CCN(C)C [Bu2 Sn[(CH2)3 NMe2]2]
Data returned: 300

Data request: Read off the recorded Minimal concentration causing complete inhibition of visible growth (MIC) for CCC[CH2][Sn]([CH2]CCC)([CH2]CCC)[CH2]CC[N+](C)(C)C.[I-]
Data returned: 300

---

# Minimal concentration causing complete inhibition of visible growth (MIC) values compiled below
Tested on: Cladosporium cucumerinum
Format: cell-based
measurement-conditions: after three days, glucose-agar, pH~6.9-7.0

[[record]]
compound = "CCC[CH2][Sn]([CH2]CCC)([CH2]CC[N+](C)(C)C)[CH2]CC[N+](C)(C)C.[I-].[I-] [Bu2 Sn[(CH2)3 NMe3 I]2]"
recorded_value = "> 500 µg/mL"

[[record]]
compound = "CCC[CH2][Sn]([CH2]CCC)([CH2]CCC)[CH2]CC[N+](C)(C)C.[I-] [Bu3 Sn(CH2)3 NMe3 I]"
recorded_value = "20 µg/mL"

[[record]]
compound = "CC[CH2][Sn]([CH2]CC)([CH2]CC)[CH2]CCNCCCN(C)C.Cl.Cl [Pr3 Sn(CH2)3 NH(CH2)3 NMe2 . 2]"
recorded_value = "20 µg/mL"


Now for the compound whose Minimal concentration causing complete inhibition of visible growth (MIC) we want.
Data request: Read off the recorded Minimal concentration causing complete inhibition of visible growth (MIC) for CC[CH2][Sn]([CH2]CC)([CH2]CC)[CH2]CCNCCCN(C)C [Pr3 Sn(CH2)3 NH(CH2)3 NMe2]
Data returned: ≤ 10 µg/mL
